System: MCF7
method description: NCI tumour cell line growth inhibition, 48 h
Calls of active or inactive are those of the source. Rule as the data show it: active = GI50 up to about 1.1 µM and inactive = higher.
Write down one outcome, taken from active, inactive

Below, 5 molecules whose answers are already recorded.
CCN(CC)N1C(=O)[N-][N+](CC)(CC)C1=O; inactive
COc1ccc([C@H]2C=C(c3cc(F)c(Cl)cc3Cl)N=c3s/c(=C\c4ccc(-c5ccc(Cl)cc5Cl)o4)c(=O)n32)cc1; inactive
COc1ccc(Nc2nc(N)c(C(=O)c3ccc(Cl)cc3)s2)cc1; active
Clc1ccc(C2Nc3ccccc3C3=NCCN32)cc1 (stereo unspecified); inactive
C/C=C1\NC(=O)[C@H]2CSSCCC=C[C@H](CC(=O)N[C@H](C(C)C)C(=O)N2)OC(=O)[C@H](C(C)C)NC1=O; active

Tell me the recorded outcome of this test for c1ccc2c(c1)[n-]n1c3ccc4nonc4c3n[n+]21 .
inactive

Call for entry CN(/N=C\c1ccc2ccccc2c1)C1=NCCN1 :
inactive

Outcome logged for COC1OC(Cn2c(C)nc(Br)c2Br)C(O)C(O)C1O (stereo unspecified) in this assay:
inactive

Assay outcome for Cc1cccc(/N=N/c2ccc(/N=N/c3c(O)ccc4ccccc34)cc2C)c1 : what was it?
inactive

Record lookup: outcome of this test for CCCOC(=O)c1cc(O)c(O)c(O)c1 [PROPYL GALLATE] ?
inactive

Record lookup: outcome of this test for CC(=O)O[C@H]1C[C@](C)(O)[C@@]23CC([C@@H](OC(=O)C(C)(C)O)[C@@H](OC(C)=O)C2(COC(=O)c2ccccc2)[C@H]1OC(C)=O)C(C)(C)O3 (stereo partly specified) ?
inactive

Kindly provide the recorded test outcome for the following molecule: CC(C)OC(=O)NNc1cccc(Cl)c1
inactive

Status in this test for CN(C)CCNc1ccc2nnn3c4ccc(Cl)cc4c(=O)c1c23 ?
inactive

In this assay, the call recorded for COC(=O)[C@H](C)N(C)C(=O)[C@H](C)N1[C@@H](c2ccccc2)COC1(C)C was what?
inactive

Hi, do you know how COc1ccc(C2=C(Cl)c3cc(OC)c(OC)cc3C2Cl)cc1 (stereo unspecified) came out in this test?
inactive

Give the logged outcome of this assay for the following molecule: NC(N)=NCCC(O)(P(=O)(O)O)P(=O)(O)O
inactive

Answer briefly: the call reported for CCc1n[nH]c(=O)n1/N=C(\C)c1ccccc1 in this assay.
inactive

# lookup: test call for Cc1ccc2c(/C=C/c3ccc(N(C)C)cc3)ccnc2c1C
inactive

Entry Cc1ccc(N2C(=O)C3c4[nH]c5ccc(C)cc5c4C4CCC(C(C)(C)C)CC4C3C2=O)cc1 (stereo unspecified) : call = ?
inactive

----------
Tested on: NCI-H460
method description: NCI tumour cell line growth inhibition, 48 h
Calls of active or inactive are those of the source. Cut-off read from the data, not from the text of the source: active = GI50 up to about 1.1 µM and inactive = higher.
measure name: GI50

Example results:
CSC1=NN(c2ccccc2)C(=O)C1=C(SC)SC; 14.2 µM (inactive)
CS(=O)(=O)OC1CCN(C2(c3cccc(O)c3)CCCCC2)CC1; 48.5 µM (inactive)
C=C1CC(c2ccc(OCCCN3C(=O)c4ccccc4C3=O)c(OC)c2)OC1=O (stereo unspecified); 2.62 µM (inactive)
N#C/N=C(/NCc1ccccc1)N(Cc1ccccc1)Cc1ccccc1; 19.6 µM (inactive)
Cc1c(C2=C(Br)C(=O)N(C)C2=O)c(=O)n(C)c(=O)n1C; 45.6 µM (inactive)

Let us move to another entry and its GI50.
Query COc1ccc(NC(=O)CC(=O)NN)cc1 yields GI50 of > 100 µM (inactive)

----------
// values below are reported GI50
Test system: NCI-H23
method description: NCI tumour cell line growth inhibition, 48 h
Active and inactive are the calls of the source. Cut-off read from the data, not from the text of the source: active = GI50 up to about 1.1 µM and inactive = higher.

Example cases with answers are listed next.
Brc1ccc2nc(-c3cccs3)nc(N3CCN(c4ccccc4)CC3)c2c1; > 100 µM (inactive)
CC(C)OC(=O)NNc1cccc(Cl)c1; > 100 µM (inactive)
O=C(O)c1c(-c2nccc3ccccc23)[nH]c(-c2ccccc2)c1S(=O)(=O)O; > 100 µM (inactive)
C=C1C(NC)CCC23CC24CCC2(C)C(C(C)=O)C(O)CC2(C)C4CCC13 (stereo unspecified); > 100 µM (inactive)
Cc1ccc2nc3sc(=O)sc3nc2c1 [CHINOMETHIONAT]; 19.4 µM (inactive)
COc1cc2c(c(O)c1C)C(=O)C(Cl)=CC2=O; 10.2 µM (inactive)

Per the records, this molecule ( CN(C)c1cccc(F)c1C(=O)NC(=O)Nc1ccc(Cl)cc1 ) has GI50 equal to 6.34 µM (inactive)

According to the records, this molecule OCc1ccn2c1[C@@H](O)CC2 displays GI50 of > 100 µM (inactive)

Entry under test: C/C=C\C(CC(=O)NCCc1cn(C(=O)OCc2ccccc2)c2ccccc12)CC(=O)OC (stereo unspecified) . Its GI50 was 89.5 µM (inactive)

molecule Nc1nc(F)nc2c1ncn2C1OC(CO)C(O)C1O (stereo unspecified) , GI50 observed: 13.3 µM (inactive)

Recorded result, CCCN(CCC)c1c([N+](=O)[O-])cc(C(=O)N(C)C)cc1[N+](=O)[O-] , GI50: 53.2 µM (inactive)

----------
System: HOP-62
method description: NCI tumour cell line growth inhibition, 48 h
Calls of active or inactive are those of the source. Rule as the data show it: active = GI50 up to about 1.1 µM and inactive = higher.
measure name: GI50

CN1C(C(=O)Nc2ccccn2)=C(O)c2ccccc2S1(=O)=O; > 100 µM (inactive)

Lab note: next compound to report on.
Sample CCOC(=O)[C@@H]1ON2O[C@@H](OC3CCCC3(c3ccccc3)c3ccccc3)C[C@H]3OC(=O)[C@@H]1C32 (stereo partly specified) , system: HOP-62. Its GI50 is 31 µM (inactive)

----------
System: MOLT-4
method description: NCI tumour cell line growth inhibition, 48 h
Active and inactive are the calls of the source. No stated cut-off is given here; in the data, active = GI50 up to about 1.1 µM and inactive = higher.
measure name: GI50

Previously resolved entries follow.
Cc1cccc(/N=N/c2ccc(/N=N/c3c(O)ccc4ccccc34)cc2C)c1; > 100 µM (inactive)
CN1C(=O)C(O)CC1c1ccccc1C(F)(F)F (stereo not given); > 100 µM (inactive)
CCCCc1c2c(nc3c1CCc1cc(C=O)c(N)nc1-3)/C(=C/c1ccccc1)CCC2; 52.2 µM (inactive)

The record that follows has no GI50 shown yet.
Consider CCc1n[nH]c(=O)n1/N=C(\C)c1ccccc1 . Its measured GI50 is > 100 µM (inactive)

----------
Test system: HL-60
method description: NCI tumour cell line growth inhibition, 48 h
Active and inactive are the calls of the source. Rule as the data show it: active = GI50 up to about 1.1 µM and inactive = higher.
Choose one outcome from this list and give only that: active, inactive

Below, 5 compounds whose answers are already recorded.
COc1cccc2c1OC(c1cccc3ccccc13)C([N+](=O)[O-])=C2 (stereo unspecified); active
COc1ccc(OC)c(-c2cn3c(n2)sc2ccccc23)c1; inactive
Cc1c(N2C(=O)CS(=O)(=O)C2c2cccc(Oc3ccccc3)c2)c(=O)n(-c2ccccc2)n1C (stereo unspecified); inactive
CCOC(=O)NC/C=C/CO; inactive
CCOC(=O)CCC(NC(=O)Cc1ccc(Oc2nc3ccccc3nc2-c2cccs2)cc1)C(=O)OCC (stereo unspecified); inactive

Alright, here's another compound for you.
What is the recorded call for this compound in the test? CCCN(CCC)c1c([N+](=O)[O-])cc(C(=O)N(C)C)cc1[N+](=O)[O-]
inactive

----------
Test system: HT-29
method description: NCI tumour cell line growth inhibition, 48 h
Calls of active or inactive are those of the source. Rule as the data show it: active = GI50 up to about 1.1 µM and inactive = higher.
measure name: GI50

Nc1nc(N)c(CCCCc2ccccc2)c(N)n1; > 100 µM (inactive)
CCOC(=O)C1=C(C)NC(C)=C(C(=O)OCC)C1c1ccc(Cl)cc1; 10.9 µM (inactive)
Oc1nc(-c2ccccc2)cc(-c2ccccc2O)n1; 56.6 µM (inactive)

compound COc1cccc2cc(C(N)=O)c(=N)oc12 , GI50 observed: 48.4 µM (inactive)

The measured GI50 associated with COc1ccc(C2c3c(-c4ccccc4)nn(-c4ccccc4)c3Oc3ncn(N)c(=N)c32)cc1OC (centres undefined) reads 1.93 µM (inactive)

Just so you know, measured GI50 for C#CCn1c(=O)c(Cl)cn(/C(=C/C(=O)OCC)C(=O)OCC)c1=O came out at 18.4 µM (inactive)

Lab book: GI50 of CO/N=C(/C(=O)OC)c1ccccc1COc1ccccc1C(F)(F)F noted as 26.1 µM (inactive)

Entry under test: O=C(Nc1ccn(C2CCC(CO)O2)c(=O)n1)c1ccccc1 (centres undefined) . Its GI50 was > 100 µM (inactive)

Lab note: measured GI50 of CCCO[C@@H]1[C@@H](OC(C)=O)[C@@H](OC(C)=O)C(C)(C)/C=C/[C@H](C)C(=O)[C@@]2(OC(C)=O)C[C@@](C)(OC(C)=O)[C@H](OC(C)=O)[C@@H]2[C@H]2OC(=O)CC[C@@]12OC(=O)c1ccccc1 was 5.18 µM (inactive)

Record CCOC(=O)C(C)(c1cn(C)c2ccccc12)c1cn(C)c2ccccc12 . Reported GI50: > 100 µM (inactive)

Item: NC(=O)COc1c(Br)cc(Br)cc1Br | GI50: > 100 µM (inactive)

get_value(item= Cc1c(-c2coc(-c3ccc(Cl)cc3)n2)c(=O)n(-c2ccccc2)n1C , readout=GI50) returns > 100 µM (inactive)

Measured GI50 of CCOC(=O)C(SCCO)C(C(=O)OCC)n1cnc2c(=O)[nH]c(NC(C)=O)nc21 (centres undefined) : > 100 µM (inactive)

Source listed as ChEMBL document CHEMBL1201862.
